test: protease stability score; higher = more stable; yeast display proteolysis, trypsin and chymotrypsin;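 also: relative to predicted unfolded state with 0 unfolded-like and 1 meaning tenfold more protease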
Returns condition met if the recorded protease stability score is greater than or equal to 1, and condition not met otherwise.

SEEERESEEFWKHLRDVTRTGDFDSLSKLVDPEVRLEWNGRHFIGREHLAELVIDMLNRIDHVELRLHSYRLQGNYLHLRTILIIRINGQQITHDTRITFIKVDGRWIIESKHVH ... condition not met
DEITTLFRKILELMEHALKTGDWEIHKRLMDPHTKSNVNGVVAIGREELDKLWKELDKQVDHVEDSHFTEFRIQGDYIRIHVQIRIRVGDKFHDLKVDYHLVIINGVMKSSSVTFH ... condition not met
DEEERSFELALRLLERTIKTGNEDDWRRMLDPHTKIIIGDKEFHGMEDAEKILREHIHRIDHFHDIHLHRIRVQGDKIHMDVRLDGRINGRRDILIARFTVVKVDGRWVIHQVESH ... condition met
DEMTHEIKRFLKEILRSSRTGDEHTDKHLMDPNVKIHYGEFHFHGREQAANFLSELRIHHVHIRDVDVQGDKATIDTEMDVEYNGQRYIFDVTLIMQKIDGRWLIKKVRYE ... condition met
DEEEEELHRLSRLILHLLLTGDWEKLADLADPHMRFEMVVGDKNEEFHGRERWLKFLRMVREKFKGMRIHLQDERVYGDKNDLDIVLNVNGQRHKVHLHLVVVDGVIKEIKIKVE ... condition met
DEEREKSELAIKIMKHVWETGDETLKSELFDPNARIHIDGKEIVGREEIEDQLRHIRMHITMFDINSTKFVDGRLEVYLNRRVRLFFDGREIEEEQHIHVVLLKINGRWQLQELEVT ... condition met
RDIRELTLMMTKLIRKTDKTGDPRIAHELADPHYRFDFDGVEYHGREIVQHWMEKYPNVRFKVRHVDIVGDKARIEGTDNVDGQEIDTEYRVSKVDGRWHLEEIIFR ... condition not met
DEMRKYAHEYFKLLIELLLTGDEDSMLHNIDPNVRFDEHAENHRVHIHGMESLREWLDHFLKHAWITHIHESDSRVFNGRMHLIGHTRIYIDGKLEIKEIRIEFIVINGRITHYRVEVN ... condition met
DDQDTNSELAVHLWILSMITGDERFLNEYMDPNAKVHVGDKEYHGREAYEFLRHRVDHIRESHIRRVHTQGNKVRVDVEFRIEVDGREINVRTELVLIKINGQWRFTEFTFK ... condition met
DEWEKLYEIALEIFLEVFKTGNEEMFLKQADPHVRLDVGDKHYHGREHVVKFLIDELKRVKNLKVSSEHESFVGDYAHMHIDLDIDGRRVDVEIVSLKVDGKWVLREVRLH ... condition met

# input Test whether the sequence SEEEKLLEELAKMFIELWLTGNEEHLMHLADPNVRFRQGDKRSHGRENLKRLLHELHEEIRIHDIRMKDVRFVNGRSIFDGHLIVQVNGVEIRLDAELTIISVNGKIKEIEIRHR records protease stability score of 1 or higher.
# output condition met

# input Test whether the sequence DKTTEEAERDAREVTRLHRTGDEEYLEKYFDPHVKLEFNGRDVHGMELASEILKKVRRDLGVDHIEVKHVELDVQGEWIHVHLNLRVFFDGRETRYEYNVHVRKIDGKWIIKHVIVRVS records protease stability score of 1 or higher.
# output condition met

# input Test whether the sequence SKEEHDAKYIAMLVVENLLTGDWERLFRYLDPHARMEFKVGDKHIETHGWKEIKETLDELITEWRTDDMKVRDIKVYGDKVDVEGEMRGDINGRIRTIEVRIEVIVVNGRLKDISFEVK records protease stability score of 1 or higher.
# output condition met
